system_tested: albumin (Homo sapiens, UniProt P02768)
Construct: from tissue; host or cells: human blood serum (healthy persons, patients; albumin purified with boric acid-immobilized resin)
Sequence (P02768 25-609): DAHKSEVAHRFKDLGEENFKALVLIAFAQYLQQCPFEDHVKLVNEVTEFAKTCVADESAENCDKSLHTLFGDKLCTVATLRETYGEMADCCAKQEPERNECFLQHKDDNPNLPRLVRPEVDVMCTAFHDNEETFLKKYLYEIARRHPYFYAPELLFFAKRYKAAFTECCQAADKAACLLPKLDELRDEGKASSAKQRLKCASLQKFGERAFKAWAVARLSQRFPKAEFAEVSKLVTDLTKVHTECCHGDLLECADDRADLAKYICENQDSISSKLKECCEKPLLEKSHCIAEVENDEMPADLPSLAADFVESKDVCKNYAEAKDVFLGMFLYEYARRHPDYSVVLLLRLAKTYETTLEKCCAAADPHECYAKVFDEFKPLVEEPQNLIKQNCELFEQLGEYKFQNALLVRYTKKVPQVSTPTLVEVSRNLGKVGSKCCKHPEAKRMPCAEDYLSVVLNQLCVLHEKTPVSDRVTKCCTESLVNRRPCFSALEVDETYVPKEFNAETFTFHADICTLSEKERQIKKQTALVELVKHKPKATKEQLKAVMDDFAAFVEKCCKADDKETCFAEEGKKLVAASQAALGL
procedure_details: Albumin assay by BCP method after pretreatment with protein denaturing agent and/or compound having S—S bond
settings: pretreatment reagent at concentration of b299; immunological method 43.0, no pretreatment 38.4
Measured albumin value by BCP method, sample Blood serum of healthy parsons values are reported for all entries that follow.
measure_name: albumin value by BCP method, sample Blood serum of healthy parsons

| compound | system_tested | readout_value |
| --- | --- | --- |
| O=C(O)c1cc(SSc2ccc([N+](=O)[O-])c(C(=O)O)c2)ccc1[N+](=O)[O-] | albumin (Homo sapiens, UniProt P02768) | 38.3 |
| O=C(O)c1ccccc1SSc1ccccc1C(=O)O | albumin (Homo sapiens, UniProt P02768) | 40.1 |
| Oc1ccc2cc(SSc3ccc4cc(O)ccc4c3)ccc2c1 [Reagent 6, 2,2′-dihydroxy-6,6′-dinaphthyl disulfide] | albumin (Homo sapiens, UniProt P02768) | 39.1 |
| c1cc(SSc2ccncc2)ccn1 | albumin (Homo sapiens, UniProt P02768) | 38.8 |
| C1CN(SSN2CCOCC2)CCO1 | albumin (Homo sapiens, UniProt P02768) | 41.3 |
| O=C(O)CCSSCCC(=O)O | albumin (Homo sapiens, UniProt P02768) | 37.9 |
| c1ccc(SSc2ccccn2)nc1 | albumin (Homo sapiens, UniProt P02768) | 38.9 |

* * *

// albumin value by BCP method, sample GA lookup, one value per entry
system_tested: albumin (Homo sapiens)
Construct: from tissue; host or cells: human blood serum (healthy persons, patients; albumin purified with boric acid-immobilized resin)
procedure_details: Albumin assay by BCP method after pretreatment with protein denaturing agent and/or compound having S—S bond
settings: pretreatment reagent at concentration of b299; immunological method 8.1, no pretreatment 7.9
measure_name: albumin value by BCP method, sample GA

| molecule | system_tested | readout_value |
| --- | --- | --- |
| CCCCCCCCCCCCOS(=O)(=O)[O-].[Na+] [Reagent 9, sodium lauryl sulfate] | albumin (Homo sapiens) | 7.8 |
| Oc1ccc2cc(SSc3ccc4cc(O)ccc4c3)ccc2c1 [Reagent 6, 2,2′-dihydroxy-6,6′-dinaphthyl disulfide] | albumin (Homo sapiens) | 7.6 |
| c1ccc(SSc2ccccn2)nc1 | albumin (Homo sapiens) | 7.8 |
| O=C(O)c1ccc(SSc2ccc(C(=O)O)cn2)nc1 | albumin (Homo sapiens) | 7.6 |

* * *

Test system: heat-stable type ascorbic acid oxidase (ASO-312)
procedure_details: Effect of buffer agent types on stabilization of ascorbic acid oxidase ASO-312 in the presence of protease
Assay type: biochemical
settings: Protease type XXIV; pH 8.0; stored two days at room temperature
Entries annotated with measured Relative activity (%) ASO-312

| compound | Relative activity (%) ASO-312 |
| --- | --- |
| O=S(=O)(O)CC(O)CN1CCN(CC(O)CS(=O)(=O)O)CC1 (centres unmarked) [POPSO] | 56 |
| O=P(O)(O)O [Phosphoric acid, phosphoric acid] | 86 |
| O=S(=O)(O)CCN1CCN(CCO)CC1 [HEPES] | 34 |
| O=S(=O)(O)CCCN1CCN(CCO)CC1 [EPPS] | 30 |
| O=S(=O)(O)CC(O)CN1CCN(CCO)CC1 (centres unmarked) [HEPPSO] | 22 |

* * *

system_tested: albumin (Homo sapiens, UniProt P02768)
Construct: from tissue; host or cells: human blood serum (healthy persons, patients; albumin purified with boric acid-immobilized resin)
procedure_details: Albumin assay by BCP method after pretreatment with protein denaturing agent and/or compound having S—S bond
settings: pretreatment reagent at concentration of b299; immunological method 40.5, no pretreatment 36.2
Overview of recorded albumin value by BCP method, sample Blood serum of patients for various compounds
measure_name: albumin value by BCP method, sample Blood serum of patients

| compound | readout_value |
| --- | --- |
| O=C(O)CCSSCCC(=O)O | 37.0 |
| c1cc(SSc2ccncc2)ccn1 | 36.2 |
| Oc1ccc2cc(SSc3ccc4cc(O)ccc4c3)ccc2c1 [Reagent 6, 2,2′-dihydroxy-6,6′-dinaphthyl disulfide] | 37.7 |
| O=C(O)c1ccccc1SSc1ccccc1C(=O)O | 35.0 |
| C1CN(SSN2CCOCC2)CCO1 | 31.3 |
| O=C(O)c1ccc(SSc2ccc(C(=O)O)cn2)nc1 | 36.7 |
| c1ccc(SSc2ccccn2)nc1 | 36.8 |
| CCCCCCCCCCCCOS(=O)(=O)[O-].[Na+] [Reagent 9, sodium lauryl sulfate] | 40.7 |
| O=C(O)c1cc(SSc2ccc([N+](=O)[O-])c(C(=O)O)c2)ccc1[N+](=O)[O-] | 35.5 |

* * *

Tested on: Protease type-XXIV
procedure_details: Screening of globulin component-selective protease inhibitors (HSA substrate with/without γ-globulin)
Assay type: biochemical, Bacillus
settings: additive concentration 1.0%; control 23.8

| compound | uom | Effect of γ-globulin (%) |
| --- | --- | --- |
| C[C@H](CCC(=O)NCCC[N+](C)(C)CCCS(=O)(=O)[O-])[C@H]1CC[C@H]2[C@@H]3[C@H](O)C[C@@H]4C[C@H](O)CC[C@]4(C)[C@H]3C[C@H](O)[C@]12C | % | 17.9 |
| CCCCCCCCO[C@@H]1O[C@H](CO)[C@@H](O)[C@H](O)[C@H]1O [Octylglucoside] | % | 18.5 |
| C[C@H](CCC(=O)O)[C@H]1CC[C@H]2[C@@H]3[C@H](O)C[C@@H]4C[C@H](O)CC[C@]4(C)[C@H]3C[C@H](O)[C@]12C | % | 23.0 |
| CCCCCCCCCCCC[N+](C)(C)[O-] [Lauryldimethylamine oxide] | % | 17.8 |
| C[N+](C)(C)Cc1ccccc1.[Br-] [Benzyltrimethylammonium bromide] | % | 23.1 |
| CC[N+](CC)(CC)Cc1ccccc1.[Br-] [Benzyltriethylammonium bromide] | % | 22.9 |
| CC[N+](CC)(CC)Cc1ccccc1.[Cl-] [Benzyltriethylammonium chloride] | % | 16.5 |

* * *

system_tested: albumin (Homo sapiens)
Construct: from tissue; host or cells: human blood serum (healthy persons, patients; albumin purified with boric acid-immobilized resin)
procedure_details: Albumin assay by BCP method after pretreatment with protein denaturing agent and/or compound having S—S bond
measure_name: effect of pretreatment on decreasing deviation from the immune method

| molecule | readout_value |
| --- | --- |
| O=C(O)c1cc(SSc2ccc([N+](=O)[O-])c(C(=O)O)c2)ccc1[N+](=O)[O-] [Reagent 5, 5,5′-dithiobis-(2-nitrobenzoic acid)] | particularly remarkable |
| c1cc(SSc2ccncc2)ccn1 [Reagent 8, 4,4′-dithiopyridine] | particularly remarkable |
| c1ccc(SSc2ccccn2)nc1 [Reagent 7, 2,2′-dithiopyridine] | particularly remarkable |
| CCCCCCCCCCCCOS(=O)(=O)[O-].[Na+] [Reagent 9, sodium lauryl sulfate] | particularly remarkable |
| C1CN(SSN2CCOCC2)CCO1 [Reagent 4, 4,4′-dithiodimorpholine] | particularly remarkable |
| Oc1ccc2cc(SSc3ccc4cc(O)ccc4c3)ccc2c1 [Reagent 6, 2,2′-dihydroxy-6,6′-dinaphthyl disulfide] | particularly remarkable |
| O=C(O)c1ccccc1SSc1ccccc1C(=O)O [Reagent 3, 2,2′-dithiodibenzoic acid] | particularly remarkable |

* * *

# key: entry, value: albumin value by BCP method, sample NGA
system_tested: albumin (Homo sapiens, UniProt P02768)
Construct: from tissue; host or cells: human blood serum (healthy persons, patients; albumin purified with boric acid-immobilized resin)
procedure_details: Albumin assay by BCP method after pretreatment with protein denaturing agent and/or compound having S—S bond
settings: pretreatment reagent at concentration of b299; immunological method 37.5, no pretreatment 36.1

| molecule | albumin value by BCP method, sample NGA |
| --- | --- |
| C1CN(SSN2CCOCC2)CCO1 [Reagent 4, 4,4′-dithiodimorpholine] | 39.5 |
| O=C(O)c1cc(SSc2ccc([N+](=O)[O-])c(C(=O)O)c2)ccc1[N+](=O)[O-] [Reagent 5, 5,5′-dithiobis-(2-nitrobenzoic acid)] | 38.4 |
| c1ccc(SSc2ccccn2)nc1 [Reagent 7, 2,2′-dithiopyridine] | 36.8 |
| Oc1ccc2cc(SSc3ccc4cc(O)ccc4c3)ccc2c1 [Reagent 6, 2,2′-dihydroxy-6,6′-dinaphthyl disulfide] | 36.9 |
| O=C(O)c1ccc(SSc2ccc(C(=O)O)cn2)nc1 [Reagent 1, 6,6′-dithiodinicotinic acid] | 35.6 |
| c1cc(SSc2ccncc2)ccn1 [Reagent 8, 4,4′-dithiopyridine] | 36.2 |
| CCCCCCCCCCCCOS(=O)(=O)[O-].[Na+] [Reagent 9, sodium lauryl sulfate] | 37.4 |
| O=C(O)c1ccccc1SSc1ccccc1C(=O)O [Reagent 3, 2,2′-dithiodibenzoic acid] | 38.0 |
| O=C(O)CCSSCCC(=O)O [Reagent 2, 3,3′-dithiodipropionic acid] | 35.7 |

* * *

system_tested: Ascorbic acid oxidase (ASO-311) (Cucurbita maxima)
Sequence (P24792 31-579): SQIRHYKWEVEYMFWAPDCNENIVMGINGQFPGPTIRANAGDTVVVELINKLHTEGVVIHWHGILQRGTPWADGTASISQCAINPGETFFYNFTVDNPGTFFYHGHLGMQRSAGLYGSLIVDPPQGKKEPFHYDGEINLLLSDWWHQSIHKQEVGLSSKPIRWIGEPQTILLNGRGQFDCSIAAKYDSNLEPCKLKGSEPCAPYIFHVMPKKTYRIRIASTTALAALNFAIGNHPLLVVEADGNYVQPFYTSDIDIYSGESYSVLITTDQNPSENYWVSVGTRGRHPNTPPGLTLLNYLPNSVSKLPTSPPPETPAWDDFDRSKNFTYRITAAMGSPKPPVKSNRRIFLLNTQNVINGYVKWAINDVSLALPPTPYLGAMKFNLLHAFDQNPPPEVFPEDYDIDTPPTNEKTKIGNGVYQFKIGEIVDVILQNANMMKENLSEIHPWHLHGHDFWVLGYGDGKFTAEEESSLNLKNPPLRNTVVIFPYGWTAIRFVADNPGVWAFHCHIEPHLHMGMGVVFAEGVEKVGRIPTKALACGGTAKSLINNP
settings: Pronase; pH 8.0; stored two days at room temperature
The entries below are paired with their reported Relative activity (%) ASO-311.

| compound | uom | Relative activity (%) ASO-311 |
| --- | --- | --- |
| O=S(=O)(O)CC(O)CN1CCN(CCO)CC1 (centres unmarked) [HEPPSO] | % | 14 |
| O=P(O)(O)O [Phosphoric acid, phosphoric acid] | % | 88 |
| O=S(=O)(O)CCCN1CCN(CCO)CC1 [EPPS] | % | 13 |
| O=S(=O)(O)CCN1CCN(CCO)CC1 [HEPES] | % | 17 |
| O=S(=O)(O)CC(O)CN1CCN(CC(O)CS(=O)(=O)O)CC1 (centres unmarked) [POPSO] | % | 80 |
